The reported measurements were obtained from ChEMBL document CHEMBL3826928.

%max values for the molecules below.
- TESTED TARGET: Toll-like receptor 7 (Mus musculus)
- EXPERIMENT DESCRIPTION: Agonist activity at TLR7 in Balb/c mouse splenocytes assessed as induction of IL-6 secretion in supernatant after 18 hrs relative to resiquimod
- Type: cell-based

[[record]]
compound_smiles = "COc1ccc(CCc2cnc3c(N)nc4cc(CCP(=O)(O)O)ccc4c3c2)c(C)c1"
tested_target = "Toll-like receptor 7 (Mus musculus)"
readout_type = "%max"
result_value = "124%"


Simply: "Cc1cc(OCCOCCOCCC(F)(F)P(=O)(O)O)ccc1CCc1cnc2c(N)nc3cc(CCC(=O)O)ccc3c2c1" , Toll-like receptor 7 (Mus musculus), %max = 80%

# value of %max, Toll-like receptor 7 (Mus musculus), item "COc1ccc(CCc2cnc3c(N)nc4cc(/C=C/P(=O)(O)O)ccc4c3c2)c(C)c1" = 81%

Entry "COc1ccc(CCc2cnc3c(N)nc4cc(/C=C(\F)P(=O)(O)O)ccc4c3c2)c(C)c1" ; assay system Toll-like receptor 7 (Mus musculus); %max recorded at 220%
